Biological target: Bovine milk xanthine oxidase (XO, EC 1.17.3.2) (Bos taurus, UniProt P80457)
Construct: Xanthine oxidase from bovine milk (EC 1.17.3.2); purchased Sigma Aldrich Co., (St. Louis, MO, USA); host or cells: bovine milk
Sequence (P80457 whole entry): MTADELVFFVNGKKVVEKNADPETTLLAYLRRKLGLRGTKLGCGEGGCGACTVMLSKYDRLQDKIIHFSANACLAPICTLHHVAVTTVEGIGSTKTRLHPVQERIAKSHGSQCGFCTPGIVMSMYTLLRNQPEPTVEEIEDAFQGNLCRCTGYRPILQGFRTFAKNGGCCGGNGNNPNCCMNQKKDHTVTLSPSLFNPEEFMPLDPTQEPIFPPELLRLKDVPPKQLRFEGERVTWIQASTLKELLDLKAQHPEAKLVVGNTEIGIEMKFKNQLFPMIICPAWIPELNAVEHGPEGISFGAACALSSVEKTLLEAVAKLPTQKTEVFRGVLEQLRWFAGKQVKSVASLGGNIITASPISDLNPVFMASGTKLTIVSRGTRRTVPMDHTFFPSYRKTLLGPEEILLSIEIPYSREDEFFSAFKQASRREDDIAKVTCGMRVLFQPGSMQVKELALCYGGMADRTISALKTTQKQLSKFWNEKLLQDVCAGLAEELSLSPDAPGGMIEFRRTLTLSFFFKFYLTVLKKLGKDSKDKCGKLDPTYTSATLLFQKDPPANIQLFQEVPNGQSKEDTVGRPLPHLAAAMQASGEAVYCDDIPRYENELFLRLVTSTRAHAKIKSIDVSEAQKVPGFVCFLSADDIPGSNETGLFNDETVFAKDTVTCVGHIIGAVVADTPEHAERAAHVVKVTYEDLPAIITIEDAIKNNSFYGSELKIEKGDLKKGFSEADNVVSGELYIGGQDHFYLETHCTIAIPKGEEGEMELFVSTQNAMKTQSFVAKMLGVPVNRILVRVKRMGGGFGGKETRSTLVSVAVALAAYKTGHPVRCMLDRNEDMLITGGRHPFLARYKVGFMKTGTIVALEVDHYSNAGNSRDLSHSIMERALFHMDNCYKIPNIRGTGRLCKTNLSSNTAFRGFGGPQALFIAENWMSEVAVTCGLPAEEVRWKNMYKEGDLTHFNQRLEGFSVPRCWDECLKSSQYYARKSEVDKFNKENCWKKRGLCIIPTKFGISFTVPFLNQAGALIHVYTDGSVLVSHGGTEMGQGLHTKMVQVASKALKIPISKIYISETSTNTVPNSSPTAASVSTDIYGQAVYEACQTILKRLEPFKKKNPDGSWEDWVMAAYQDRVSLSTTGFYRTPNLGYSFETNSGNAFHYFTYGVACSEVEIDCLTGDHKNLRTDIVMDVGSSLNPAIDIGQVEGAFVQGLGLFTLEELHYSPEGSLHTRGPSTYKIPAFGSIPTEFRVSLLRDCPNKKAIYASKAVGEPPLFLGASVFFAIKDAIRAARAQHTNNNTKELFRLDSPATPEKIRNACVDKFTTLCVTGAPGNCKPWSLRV
Assay: Xanthine oxidase inhibition kinetics (Lineweaver–Burk and Dixon plots)
Format: biochemical
Settings: binding of inhibitor to free enzyme; secondary plot of slope; read-out: KI
pKi: −log10 of the molar value.
Kind request: treat 5 as inclusive, so pKi at 5 or higher is t, anything lower is f.

Examples with answers:
CC(C)=CCc1c(-c2coc3cc(O)cc(O)c3c2=O)cc2c(c1O)OC(C)(C)C=C2
f
CC(C)=CCc1c2c(c3occ(-c4ccc(O)cc4)c(=O)c3c1O)C=CC(C)(C)O2
f
COc1cc(-c2coc3c(CC=C(C)C)c(O)c(CC=C(C)C)c(O)c3c2=O)ccc1O
f

Next, consider the following molecule.
Input: # check: pKi of CC(C)=CCc1c(O)c(CC=C(C)C)c2occ(-c3ccc(O)c(O)c3)c(=O)c2c1O is greater than or equal to 5
Output: t
